Tested on: PC26
Assay: qHTS profiling for inhibitors of Plasmodium falciparum proliferation (AID 504749); also: nearly all actives have a fitted effect of over 60% in size
Settings: P. falciparum in erythrocytes, SYBR Green DNA, 72 h; series mostly up to 28.7 µM
Results filed as inconclusive are left out. The source made the active and inactive calls. Calls follow the shape of the dose curve; as a rule, active = well fitted inhibition curve with a large enough effect; inconclusive = small, poorly fitted or top-dose-only effect; inactive = flat fitted curve, though single readings scatter.
// classify into active, inactive

Example cases with answers are listed next.
compound	experimentalTarget	classification
O=C(Cn1ccnc1[N+](=O)[O-])NCc1ccccc1	PC26	inactive
Cc1c(NC(=O)c2cccnc2)c(=O)n(-c2ccccc2)n1C	PC26	inactive
O=C(O)CCC(=O)O	PC26	inactive

Task item: How did this test come out for COc1ccccc1Oc1c(NS(=O)(=O)c2ccc(C(C)(C)C)cc2)nc(-c2ncccn2)nc1OCCO ?
Reply: inactive

Task item: // return assay outcome for CC(C(=O)O)c1ccc2c(c1)Cc1cccnc1O2 (stereo unspecified)
Reply: inactive
